# Test system: Plasmodium berghei
# measurement.protocol: Screen against P. berghei liver stage (PbLuc), transformed with Luciferase, at 10uM
# Type: functional, HepG2
# recorded.conditions: tested at 10 uM
Among all 69,000 compounds or so, about 8,600 (12%) showed an effect of 50% or more. The list comes from a sample in which strong results are over-represented; it also holds close analogues and randomly drawn compounds.
# note: exactly 30% is not below, so it is NOT MET; use MET for INHIBITION strictly under it

compound: Cc1cnn(CCNCc2ccccc2F)c1
label.value: MET
--
compound: CCCc1nc(CNCC2CCCN2c2cccnn2)cs1 (centres undefined)
label.value: NOT MET
--
compound: CC(C)CN1CCS(=O)(=O)[C@@H]2CCN(S(=O)(=O)C3CC3)CC[C@@H]21
label.value: MET
--
compound: COC[C@]1(O)CCN(C2CCN(c3ccc(OC)cc3)CC2)CC1(C)C
label.value: MET
--
compound: Cn1c(=O)oc2cc(Nc3ncc(C#N)cc3Cl)ccc21
label.value: NOT MET
--
compound: Cc1ccc(-c2cc(CNCCn3cc(C)cn3)on2)cc1
label.value: NOT MET
--
compound: Clc1cccnc1OC1CCNCC1
label.value: MET
--
compound: O=C(CNCC1CCCN1c1cccnn1)NCCc1cccs1 (centres undefined)
label.value: MET
--
compound: CCc1noc(CNCC2CCCN2c2cccnn2)n1 (centres undefined)
label.value: MET
--
compound: CCc1ccc(C(C)NC(=O)CN(C)Cc2ccc(C)o2)cc1 (centres undefined)
label.value: MET
--
compound: CN1CCc2[nH]nc(C(=O)N3CCC4(CCCO4)CC3)c2C1
label.value: NOT MET
--
compound: O=C(c1cc(C2CC2)on1)N1CCC(Oc2ncccc2Br)CC1
label.value: NOT MET
--
compound: CC(=O)c1cc(C(=O)N2CCN(C)Cc3ccccc32)n(C)c1
label.value: MET
--
compound: Cn1c(=O)oc2cc(Nc3nccnc3C#N)ccc21
label.value: NOT MET
--
compound: Brc1cccnc1OC1CCNCC1
label.value: NOT MET
--
compound: CCc1nc(CNCC2CCCN2c2cccnn2)no1 (centres undefined)
label.value: MET
--
compound: Cc1cn2c(n1)CCC(NC(=O)c1ccc(CS(C)(=O)=O)o1)C2 (centres undefined)
label.value: MET
--
compound: CC(C)CCc1nc(CNCC2CCCN2c2cccnn2)cs1 (centres undefined)
label.value: NOT MET
--
compound: Cc1cccc(OCCC(=O)N2CCN(CC(=O)NC3CC3)CC2)c1C
label.value: NOT MET
--
compound: CN(Cc1cnn(-c2ccccc2)n1)C1CCCN(c2cccnn2)C1 (centres undefined)
label.value: MET
--
compound: Cc1cc(C)cc(C(C)NC(=O)c2ccc(CS(C)(=O)=O)o2)c1 (centres undefined)
label.value: NOT MET
--
compound: N#Cc1nccnc1N1CCC(COCc2ccccc2)C1 (centres undefined)
label.value: MET
--
compound: O=C(NCc1ccccc1)N1CCC(Oc2ncccc2Br)CC1
label.value: NOT MET
--
compound: CC(c1ccc2c(c1)OCCO2)N(C)C(=O)c1ccnnc1 (centres undefined)
label.value: MET
--
compound: N#Cc1cccnc1OC1CCN(C(=O)c2cc(C3CC3)on2)CC1
label.value: NOT MET
--
compound: Cc1cnn(CCNCc2ccccc2C#N)c1
label.value: NOT MET
--
compound: CCc1csc(C2CCCN(C(=O)c3cnc[nH]3)C2)n1 (centres undefined)
label.value: MET
--
compound: CCCn1c(SCC(N)=O)nnc1-c1csc2c1CCCC2
label.value: MET
--
compound: CN1CCc2[nH]nc(C(=O)N3CCC4(CN(C)C(=O)O4)C3)c2C1 (centres undefined)
label.value: NOT MET
--
compound: CC(=O)N1CCN(C(=O)CCCc2nnc(-c3ccccc3)o2)CC1
label.value: MET
--
compound: CN1CCN(C(=O)[C@H]2C[C@H]3[C@H](CCN3Cc3cccs3)O2)CC1
label.value: MET
--
compound: N#Cc1nccnc1N1CCC(Cc2ccccc2)C1 (centres undefined)
label.value: MET
--
compound: COc1ccc(Br)c(C(=O)NC(CC(=O)O)c2cccs2)c1 (centres undefined)
label.value: NOT MET
--
compound: CSc1ccccc1C(=O)N1CCOC(CCN(C)C)C1 (centres undefined)
label.value: MET
--
compound: Cc1nn(C)c2c(N3CCN(C)CC3)nc(C3CC3)nc12
label.value: MET
--
compound: CN1CCc2[nH]nc(C(=O)N3CCCC4(CC3)CNC(=O)O4)c2C1 (centres undefined)
label.value: NOT MET
--
compound: Cc1ccc(OCC2CCCN(Cc3ccc(CO)o3)C2)cc1 (centres undefined)
label.value: MET
--
compound: O=C(CCC(=O)N1CCC(Oc2ncccc2Br)CC1)c1ccccc1
label.value: NOT MET
--
compound: Cc1ccc(OCC2CCCN(C(=O)CN3CCOCC3)C2)cc1 (centres undefined)
label.value: NOT MET

###

# Tested on: Plasmodium berghei
# measurement.protocol: Screen against P. berghei liver stage (PbLuc), transformed with Luciferase, at 10uM
# Format: functional, HepG2
# recorded.conditions: tested at 10 uM
About 8,600 (12%) of roughly 69,000 compounds showed an effect of 50% or more. What follows is part of a selection rich in strong results, with near analogues and random picks from the rest.

molecule: O=C(C1CCOCC1)N1CC[C@H]2[C@H]1CCN2c1nncs1
units: %
INHIBITION: 40.8

molecule: CCN(Cc1ccc2c(c1)OCO2)Cc1nc2c(cnn2C)c(=O)[nH]1
units: %
INHIBITION: -6.14

molecule: CC(C)CN(C)Cc1nc2c(cnn2C)c(=O)[nH]1
units: %
INHIBITION: -14.935

molecule: CN(CC(=O)N(C)C1CCCCC1)Cc1nc2ccccc2c(=O)[nH]1
units: %
INHIBITION: 44.7

molecule: CN(C)c1ncccc1C(=O)N1CCCC1Cn1cccn1 (centres undefined)
units: %
INHIBITION: -21.5

molecule: CN(Cc1cccc(F)c1)Cc1nc2c(cnn2C)c(=O)[nH]1
units: %
INHIBITION: 23.7

molecule: CCN(CC)C(=O)CN(C)Cc1nc2c(cnn2C)c(=O)[nH]1
units: %
INHIBITION: 37.2

molecule: CN(CCOc1cccc(F)c1)Cc1nc2c(cnn2C)c(=O)[nH]1
units: %
INHIBITION: 55.2

molecule: Cc1[nH]c2ccc(CNc3cc(C(=O)NC(C)C)ccn3)cc2c1C
units: %
INHIBITION: 55.4

###

# Tested on: Plasmodium berghei
# measurement.protocol: Screen against P. berghei liver stage (PbLuc), transformed with Luciferase, at 10uM
# Type: functional, HepG2
# recorded.conditions: tested at 10 uM
Out of some 69,000 compounds screened, about 8,600 (12%) showed an effect of 50% or more. Many of the other results were omitted from the sample, so strong results are more common in it than they were.

compound: O=C(Cc1ccc(F)c(Br)c1)NC1CCN(CC(F)F)CC1
INHIBITION [%]: -60.4

compound: CCN1Cc2cc3c(cc2NCCC1=O)OCO3
INHIBITION [%]: 64.6

compound: CC(C)Oc1ccc(CN)c(C(F)(F)F)c1
INHIBITION [%]: 10

compound: O=C(C1CCCO1)N1C[C@@H]2CCN(c3cnccn3)C[C@@H]2C1 (some centres not stated)
INHIBITION [%]: 28.4

compound: CN1CCCc2cc(CNC(=O)c3cc[n+]([O-])cc3)ccc21
INHIBITION [%]: 53.9

compound: CC(=O)N1CCN([C@@H]2CCC[C@@H](N(C)C(=O)C3CC3)[C@H]2O)CC1
INHIBITION [%]: 45.6

compound: Cc1ccc(CN2C(=O)OCC2CO)c2ccccc12 (configuration not stated)
INHIBITION [%]: 40.3

###

# System: Plasmodium berghei
# measurement.protocol: Screen against P. berghei liver stage (PbLuc), transformed with Luciferase, at 10uM
# Format: functional, HepG2
# recorded.conditions: tested at 10 uM
The campaign covered roughly 69,000 compounds. About 8,600 (12%) showed an effect of 50% or more. The sample as a whole holds a higher share of strong results than the screen did.
Parameter INHIBITION: see the listing below.

molecule: CCN1CCCn2c(nc(CNC(=O)c3ccsc3)cc2=O)C1
units: %
INHIBITION: 58
--
molecule: O=C(O)CC(NC(=O)CCCc1cccs1)c1ccc(F)cc1 (stereo not given)
units: %
INHIBITION: 18.4
--
molecule: CC(C)n1cnnc1C1CCCN(C(=O)COCc2ccccc2)C1 (stereo not given)
units: %
INHIBITION: 2.3
--
molecule: Cc1ccc(C(N)c2cccs2)cc1 (stereo not given)
units: %
INHIBITION: 61.5
--
molecule: NC(c1ccc(Cl)cc1)c1cccs1 (stereo not given)
units: %
INHIBITION: 22.5
